Biological target: vanilloid receptor 1 (VR1/TRPV1) of the rat species (Rattus norvegicus, UniProt O35433)
Construct: The spinal column is removed from decapitated rats; from tissue; host or cells: primary cells dissociated from rat dorsal root ganglia
Sequence (O35433 whole entry): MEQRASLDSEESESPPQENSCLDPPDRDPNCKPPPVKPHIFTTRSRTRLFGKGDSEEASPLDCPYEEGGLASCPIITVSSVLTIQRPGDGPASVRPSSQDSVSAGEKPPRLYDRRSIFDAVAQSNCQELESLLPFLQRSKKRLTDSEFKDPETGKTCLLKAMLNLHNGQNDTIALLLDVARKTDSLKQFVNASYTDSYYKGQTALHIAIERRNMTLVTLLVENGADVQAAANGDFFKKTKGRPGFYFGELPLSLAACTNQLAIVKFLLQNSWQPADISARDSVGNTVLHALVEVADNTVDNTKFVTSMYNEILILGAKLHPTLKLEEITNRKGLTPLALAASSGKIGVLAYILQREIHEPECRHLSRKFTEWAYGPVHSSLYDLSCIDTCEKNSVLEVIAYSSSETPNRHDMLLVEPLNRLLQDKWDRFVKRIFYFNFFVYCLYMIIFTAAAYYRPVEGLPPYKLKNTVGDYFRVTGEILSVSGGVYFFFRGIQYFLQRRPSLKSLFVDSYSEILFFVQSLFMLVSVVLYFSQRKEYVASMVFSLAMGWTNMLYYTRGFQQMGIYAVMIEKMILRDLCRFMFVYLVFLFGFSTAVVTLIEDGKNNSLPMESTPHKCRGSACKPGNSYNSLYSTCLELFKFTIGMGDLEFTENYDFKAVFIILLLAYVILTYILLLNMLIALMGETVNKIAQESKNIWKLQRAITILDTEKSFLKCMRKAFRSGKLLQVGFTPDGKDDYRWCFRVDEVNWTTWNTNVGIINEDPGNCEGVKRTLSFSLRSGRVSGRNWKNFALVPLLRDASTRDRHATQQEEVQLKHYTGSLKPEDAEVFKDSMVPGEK
Assay: FLIPR Ca2+ influx assay on rat dorsal root ganglia cells (pharmacological method I)
Assay type: cell-based
Details: @ 10 μM; read-out: inhibition in percent, Ki (rat) Cap.
experimental-readout: inhibition at 10 µM (%)
Please give a number only; it is taken to be in %.

// inhibition at 10 µM lookup, compound = CC(C(=O)NCc1ccc(C(F)(F)F)nc1N1CCC(N2CCCCC2)CC1)c1ccc(NS(C)(=O)=O)c(F)c1 (stereo not shown) [Example 164] , result: 85

// inhibition at 10 µM lookup, compound = CC(C(=O)NCc1ccc(C(F)(F)F)nc1N1CCN(c2ccncc2)CC1)c1ccc(NS(C)(=O)=O)c(F)c1 (stereo not shown) [Example 176] , result: 60

// inhibition at 10 µM lookup, compound = CC(C(=O)NCc1ccc(C(F)(F)F)nc1)c1ccc(NS(C)(=O)=O)c(F)c1 (stereo not shown) [Example 215] , result: 48

// inhibition at 10 µM lookup, compound = CC(C(=O)NCc1ccc(C(F)(F)F)nc1N1CCC(N2CCCC2)CC1)c1ccc(NS(C)(=O)=O)c(F)c1 (stereo not shown) [Compound 165] , result: 4

====

Biological target: vanilloid receptor (VR1) (Homo sapiens)
Construct: expressed in transfected cells; host or cells: CHO K1 cells (ECACC), stably transfected
Assay: FLIPR Ca2+ influx assay on CHO K1 cells transfected with the VR1 gene (pharmacological method II)
Type: cell-based
Details: table 4; capsaicin; read-out: Ki (human) Cap.
Give measured pKi for each item. Keep answers brief.
As a rule, pKi stands for the negative log10 of the concentration, concentration in M.

// pKi lookup, compound = CC(C(=O)NCc1ccc(C(F)(F)F)cc1N1CCN(C2CCCCC2)CC1)c1ccc(NS(C)(=O)=O)c(F)c1 (stereo not shown) [Example 319] , result: 7.86

// pKi lookup, compound = CC(C(=O)NCc1ccc(C(F)(F)F)nc1OCCOc1ccccc1)c1ccc(NS(C)(=O)=O)c(F)c1 (stereo not shown) [Example 362] , result: 8.82

// pKi lookup, compound = CC(C(=O)NCc1ccc(C(F)(F)F)nc1NCc1ccccc1)c1ccc(NS(C)(=O)=O)c(F)c1 (stereo not shown) [Example 115] , result: 7.80

// pKi lookup, compound = CCOCCCOc1nc(C(F)(F)F)ccc1CNC(=O)C(C)c1ccc(NS(C)(=O)=O)c(F)c1 (stereo not shown) [Example 361] , result: 8.01

// pKi lookup, compound = CC(C)COc1nc(C(F)(F)Cl)ccc1CNC(=O)C(C)c1ccc(NS(C)(=O)=O)c(F)c1 (stereo not shown) [Example 208] , result: 9.22

// pKi lookup, compound = CC1CCC(COc2nc(C(F)(F)F)ccc2CNC(=O)C(C)c2ccc(NS(C)(=O)=O)c(F)c2)CC1 (stereo not shown) [Example 271] , result: 9.00

// pKi lookup, compound = CC(C(=O)NCc1ccc(C(F)(F)F)nc1CCc1ccc(F)cc1)c1ccc(NS(C)(=O)=O)c(F)c1 (stereo not shown) [Example 303] , result: 8.74

====

Target: vanilloid receptor (VR1) (Homo sapiens)
Construct: expressed in transfected cells; host or cells: CHO K1 cells (ECACC), stably transfected
Assay: FLIPR Ca2+ influx assay on CHO K1 cells transfected with the VR1 gene (pharmacological method II)
Format: cell-based
experimental-readout: Ki

// Ki lookup, compound = CCOC(=O)C1(c2ccccc2)CCN(c2nc(C(F)(F)F)ccc2CNC(=O)C(C)c2ccc(NS(C)(=O)=O)c(F)c2)CC1 (stereo not shown) [Example 189] , result: 4.7 nM

====

Target: vanilloid receptor (VR1) (Homo sapiens, UniProt Q8NER1)
Construct: expressed in transfected cells; host or cells: CHO K1 cells (ECACC), stably transfected
Sequence (Q8NER1 whole entry): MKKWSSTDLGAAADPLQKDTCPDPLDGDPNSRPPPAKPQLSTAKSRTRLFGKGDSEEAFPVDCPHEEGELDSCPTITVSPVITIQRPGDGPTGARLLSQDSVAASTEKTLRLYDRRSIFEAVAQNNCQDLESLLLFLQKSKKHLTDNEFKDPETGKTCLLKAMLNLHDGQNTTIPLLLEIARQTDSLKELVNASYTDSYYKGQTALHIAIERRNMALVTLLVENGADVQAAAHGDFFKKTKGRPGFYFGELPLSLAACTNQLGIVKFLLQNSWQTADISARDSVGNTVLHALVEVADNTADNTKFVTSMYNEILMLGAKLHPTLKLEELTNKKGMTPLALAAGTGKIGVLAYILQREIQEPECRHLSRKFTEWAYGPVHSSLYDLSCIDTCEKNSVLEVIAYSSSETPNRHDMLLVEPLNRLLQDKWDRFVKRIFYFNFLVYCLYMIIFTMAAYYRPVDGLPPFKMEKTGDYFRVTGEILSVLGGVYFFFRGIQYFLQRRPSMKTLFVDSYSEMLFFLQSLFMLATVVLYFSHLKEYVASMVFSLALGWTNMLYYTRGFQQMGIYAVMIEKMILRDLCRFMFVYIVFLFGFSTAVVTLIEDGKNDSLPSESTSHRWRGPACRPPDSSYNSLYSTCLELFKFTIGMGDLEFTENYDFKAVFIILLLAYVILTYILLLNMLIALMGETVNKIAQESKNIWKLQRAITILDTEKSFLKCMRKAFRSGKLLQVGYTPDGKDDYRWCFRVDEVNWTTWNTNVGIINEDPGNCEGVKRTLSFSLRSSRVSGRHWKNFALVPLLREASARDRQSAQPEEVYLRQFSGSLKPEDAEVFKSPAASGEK
Experiment: FLIPR Ca2+ influx assay on CHO K1 cells transfected with the VR1 gene (pharmacological method II)
Assay type: cell-based
Details: table 4; capsaicin; read-out: Ki (human) Cap.
experimental-readout: Ki (nM)
Please give a number only; it is taken to be in nM.

// Ki lookup, compound = CCC1CCN(c2cc(C(F)(F)F)ccc2CNC(=O)C(C)c2ccc(NS(C)(=O)=O)c(F)c2)CC1 (stereo not shown) [Example 229] , result: 0.7

// Ki lookup, compound = CC(C(=O)NCc1cnc(C(F)(F)F)cc1-c1ccccc1)c1ccc(NS(C)(=O)=O)c(F)c1 (stereo not shown) [Example 292] , result: 32.7

// Ki lookup, compound = CCCCN(CCCC)c1nc(C(F)(F)F)ccc1CNC(=O)C(C)c1ccc(NS(C)(=O)=O)c(F)c1 (stereo not shown) [Example 183] , result: 0.6

// Ki lookup, compound = Cc1ccc(Oc2nc(C(F)(F)F)ccc2CNC(=O)C(C)c2ccc(NS(C)(=O)=O)c(F)c2)cc1 (stereo not shown) [Example 345] , result: 2.8

====

Molecular target: vanilloid receptor 1 (VR1/TRPV1) of the rat species (Rattus norvegicus)
Construct: The spinal column is removed from decapitated rats; from tissue; host or cells: primary cells dissociated from rat dorsal root ganglia
Test: FLIPR Ca2+ influx assay on rat dorsal root ganglia cells (pharmacological method I)
Format: cell-based
Conditions: table 4; capsaicin; read-out: Ki (rat) Cap.
Give measured pKi for each item. Keep answers brief.
As a rule, pKi stands for the negative log10 of the concentration, concentration in M.

// pKi lookup, compound = CC(C(=O)NCc1ccc(C(C)(C)C)nc1OC1CCCCC1)c1ccc(NS(C)(=O)=O)c(F)c1 (stereo not shown) , result: 8.85

// pKi lookup, compound = CC(C(=O)NCc1ccc(C(F)(F)F)nc1-c1cccs1)c1ccc(NS(C)(=O)=O)c(F)c1 (stereo not shown) , result: 8.30

// pKi lookup, compound = CC(C(=O)NCc1ccc(C(F)(F)F)nc1N1CCCCC1C)c1ccc(NS(C)(=O)=O)c(F)c1 (stereo not shown) , result: 8.35

// pKi lookup, compound = CCCCCCOc1nc(C(C)(C)C)ccc1CNC(=O)C(C)c1ccc(NS(C)(=O)=O)c(F)c1 (stereo not shown) , result: 8.85

====

Biological target: VR1/TRPV1 receptor (Homo sapiens, UniProt Q8NER1)
Sequence (Q8NER1 whole entry): as above
Assay: IC50 (human) after pH stimulus
Format: cell-based
Conditions: table 4
experimental-readout: pIC50
As a rule, pIC50 stands for the negative log10 of the concentration, concentration in M.

// pIC50 lookup, compound = CC(C(=O)NCc1ccc(C(F)(F)F)nc1N1CCC(C#N)(c2ccccc2)CC1)c1ccc(NS(C)(=O)=O)c(F)c1 (stereo not shown) , result: 6.42

// pIC50 lookup, compound = CCOC(=O)C1(c2ccccc2)CCN(c2nc(C(F)(F)F)ccc2CNC(=O)C(C)c2ccc(NS(C)(=O)=O)c(F)c2)CC1 (stereo not shown) , result: 6.78

// pIC50 lookup, compound = CC(C(=O)NCc1ccc(C(F)(F)F)nc1N1CCC(F)CC1)c1ccc(NS(C)(=O)=O)c(F)c1 (stereo not shown) , result: 7.70

// pIC50 lookup, compound = CC(C(=O)NCc1ccc(C(F)(F)F)nc1OCC1CCN(C(=O)OC(C)(C)C)CC1)c1ccc(NS(C)(=O)=O)c(F)c1 (stereo not shown) , result: 6.47

// pIC50 lookup, compound = CC1CCN(c2cc(C(F)(F)F)ccc2CNC(=O)C(C)c2ccc(NS(C)(=O)=O)c(F)c2)CC1 (stereo not shown) , result: 7.79

// pIC50 lookup, compound = CC(C(=O)NCc1ccc(C(F)(F)F)cc1OC1CCCC1)c1ccc(NS(C)(=O)=O)c(F)c1 (stereo not shown) , result: 7.59

// pIC50 lookup, compound = CC(C(=O)NCc1ccc(C(F)(F)F)nc1OCC1CC1(C)C)c1ccc(NS(C)(=O)=O)c(F)c1 (stereo not shown) , result: 6.79

====

Target: vanilloid receptor 1 (VR1/TRPV1) of the rat species (Rattus norvegicus, UniProt O35433)
Construct: The spinal column is removed from decapitated rats; from tissue; host or cells: primary cells dissociated from rat dorsal root ganglia
Test: FLIPR Ca2+ influx assay on rat dorsal root ganglia cells (pharmacological method I)
Type: cell-based
Details: table 4; capsaicin; read-out: Ki (rat) Cap.
Procedure: I. Functional Investigation of the Vanilloid Receptor 1 (VR1/TRPV1 Receptor) The agonistic or antagonistic action of the substances to be investigated on the vanilloid receptor 1 (VR1/TRPV1) of the rat species may be determined by the following assay. […] The DRGs are in each case repeatedly suspended, drawn by means of a syringe through no. […] The resultant pellet is in each case resuspended in 250 μL of complete medium and the cell count determined. […]
experimental-readout: pKi
As a rule, pKi stands for the negative log10 of the concentration, concentration in M.

Recorded pKi for CC(C(=O)NCc1ccc(C(F)(F)F)nc1-c1cccc(Cl)c1)c1ccc(NS(C)(=O)=O)c(F)c1 (stereo not drawn) on vanilloid receptor 1 (VR1/TRPV1) of the rat species (Rattus norvegicus, UniProt O35433) was 9.15

Recorded pKi for `C[C@H](C(=O)NCc1ccc(C(F)(F)F)nc1-c1ccc(F)c(Cl)c1)c1ccc(NS(C)(=O)=O)c(F)c1` on vanilloid receptor 1 (VR1/TRPV1) of the rat species (Rattus norvegicus, UniProt O35433) was 9.40

Recorded pKi for CC(C(=O)NCc1ccc(C(F)(F)F)cc1N1CCC(C(F)(F)F)CC1)c1ccc(NS(C)(=O)=O)c(F)c1 (stereo not drawn) on vanilloid receptor 1 (VR1/TRPV1) of the rat species (Rattus norvegicus, UniProt O35433) was 9.22

Recorded pKi for CC(C(=O)NCc1ccc(C(F)(F)Cl)nc1OCc1ccccn1)c1ccc(NS(C)(=O)=O)c(F)c1 (stereo not drawn) on vanilloid receptor 1 (VR1/TRPV1) of the rat species (Rattus norvegicus, UniProt O35433) was 8.14

Recorded pKi for COCC1CCN(c2nc(C(F)(F)F)ccc2CNC(=O)C(C)c2ccc(NS(C)(=O)=O)c(F)c2)CC1 (stereo not drawn) on vanilloid receptor 1 (VR1/TRPV1) of the rat species (Rattus norvegicus, UniProt O35433) was 8.80

Recorded pKi for CC(C(=O)NCc1ccc(C(F)(F)F)nc1C=Cc1ccccc1)c1ccc(NS(C)(=O)=O)c(F)c1 (stereo not drawn) on vanilloid receptor 1 (VR1/TRPV1) of the rat species (Rattus norvegicus, UniProt O35433) was 8.70

Recorded pKi for CC(C(=O)NCc1ccc(C(F)(F)F)cc1OC1CCCC1)c1ccc(NS(C)(=O)=O)c(F)c1 (stereo not drawn) on vanilloid receptor 1 (VR1/TRPV1) of the rat species (Rattus norvegicus, UniProt O35433) was 9.30

Recorded pKi for CC(C(=O)NCc1ccc(C(F)(F)F)nc1N1CCN(c2ccc(C(F)(F)F)cc2)CC1)c1ccc(NS(C)(=O)=O)c(F)c1 (stereo not drawn) on vanilloid receptor 1 (VR1/TRPV1) of the rat species (Rattus norvegicus, UniProt O35433) was 8.62

Recorded pKi for CC(C(=O)NCc1ccc(C(C)(C)C)cc1OCC(C)(C)C)c1ccc(NS(C)(=O)=O)c(F)c1 (stereo not drawn) on vanilloid receptor 1 (VR1/TRPV1) of the rat species (Rattus norvegicus, UniProt O35433) was 8.66

Recorded pKi for CC(C(=O)NCc1ccc(C(F)(F)F)nc1-n1ccnc1)c1ccc(NS(C)(=O)=O)c(F)c1 (stereo not drawn) on vanilloid receptor 1 (VR1/TRPV1) of the rat species (Rattus norvegicus, UniProt O35433) was 6.84

Recorded pKi for CC(C)OC1CCN(c2nc(C(F)(F)F)ccc2CNC(=O)C(C)c2ccc(NS(C)(=O)=O)c(F)c2)CC1 (stereo not drawn) on vanilloid receptor 1 (VR1/TRPV1) of the rat species (Rattus norvegicus, UniProt O35433) was 8.80

Recorded pKi for CC(C(=O)NCc1ccc(C(F)(F)F)nc1-c1ccc(F)c(Cl)c1)c1ccc(NS(C)(=O)=O)c(F)c1 (stereo not drawn) on vanilloid receptor 1 (VR1/TRPV1) of the rat species (Rattus norvegicus, UniProt O35433) was 9.70

Recorded pKi for CC(C(=O)NCc1ccc(C(F)(F)F)cc1N1CCCCCCC1)c1ccc(NS(C)(=O)=O)c(F)c1 (stereo not drawn) on vanilloid receptor 1 (VR1/TRPV1) of the rat species (Rattus norvegicus, UniProt O35433) was 8.96

Recorded pKi for CC(=O)OC1CCN(c2nc(C(F)(F)F)ccc2CNC(=O)C(C)c2ccc(NS(C)(=O)=O)c(F)c2)CC1 (stereo not drawn) on vanilloid receptor 1 (VR1/TRPV1) of the rat species (Rattus norvegicus, UniProt O35433) was 7.90

Recorded pKi for CC(C(=O)NCc1ccc(C(F)(F)Cl)nc1N1CCN(c2ccccc2)CC1)c1ccc(NS(C)(=O)=O)c(F)c1 (stereo not drawn) on vanilloid receptor 1 (VR1/TRPV1) of the rat species (Rattus norvegicus, UniProt O35433) was 9.10
